# TARGET_OF_ASSAY: Cholinesterase (Equus caballus, UniProt P81908)
# Sequence (P81908 whole entry): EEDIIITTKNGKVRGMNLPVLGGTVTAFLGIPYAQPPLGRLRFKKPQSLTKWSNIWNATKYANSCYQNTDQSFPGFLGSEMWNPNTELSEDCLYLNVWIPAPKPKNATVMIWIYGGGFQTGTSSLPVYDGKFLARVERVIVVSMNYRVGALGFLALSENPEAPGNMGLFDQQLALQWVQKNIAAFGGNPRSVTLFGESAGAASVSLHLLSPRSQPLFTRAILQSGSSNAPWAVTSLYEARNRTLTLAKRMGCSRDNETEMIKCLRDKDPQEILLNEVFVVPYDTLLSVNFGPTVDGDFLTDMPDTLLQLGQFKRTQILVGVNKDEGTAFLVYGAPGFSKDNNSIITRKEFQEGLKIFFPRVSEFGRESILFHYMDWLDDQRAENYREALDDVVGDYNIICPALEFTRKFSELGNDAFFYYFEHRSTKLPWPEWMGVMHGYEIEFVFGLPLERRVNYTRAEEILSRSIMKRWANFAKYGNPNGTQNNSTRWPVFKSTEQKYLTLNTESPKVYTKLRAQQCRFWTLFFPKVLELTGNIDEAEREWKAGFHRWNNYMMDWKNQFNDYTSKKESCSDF
# PROCEDURE_SUMMARY: Inhibition of equine serum BChE using S-butyrylthiocholine iodide as substrate preincubated for 60 mins followed by substrate addition and measured for 5 mins by Ellman's method
PARAMETER: pIC50
The value called pIC50 is obtained by taking minus log10 of the concentration in mol/L.

Before answering, review these 5 worked examples.
CN(C)C(=O)Oc1cccc(C(O)CNC2CCCCC2)c1 (stereo unspecified)    8.10
CN(C)C(=O)Oc1cccc(C(O)CN2CCOCC2)c1 (stereo unspecified)    5.66
CCC(C)(C)NCC(O)c1cccc(OC(=O)N(C)C)c1 (stereo unspecified)    6.74
CN(C)C(=O)Oc1cccc(C(O)CNC(C)(C)C)c1 (stereo unspecified)    6.42
CN(C)C(=O)Oc1cccc(C(O)CNC2CCCC2)c1 (stereo unspecified)    7.24

Task: Kindly state the measured pIC50 obtained for CN(C)C(=O)Oc1cccc(C(O)CN2CCCCC2)c1 (stereo unspecified) with Cholinesterase (Equus caballus, UniProt P81908).
Output: 7.01

Task: Provide value of pIC50 for this record tested with Cholinesterase (Equus caballus, UniProt P81908): CN(C)C(=O)Oc1cccc(C(O)CNc2ccc(I)cc2)c1 (stereo unspecified)
Output: 6.42

Task: # value lookup — system Cholinesterase (Equus caballus, UniProt P81908), readout pIC50, item CN(C)C(=O)Oc1cccc(C(O)CNc2ccc(F)cc2)c1 (stereo unspecified)
Output: 6.71

Task: Missing value: pIC50, Cholinesterase (Equus caballus, UniProt P81908), entry CN(C)C(=O)Oc1cccc(C(O)CNC(C)(C)c2ccccc2)c1 (stereo unspecified) . Fill in?
Output: 6.52
